Recorded values, source the supplement of paper PMC7877785.

- assay_comment: self-splicing fitness, log relative to wild type (ln ratio); higher = more splicing; Tetrahymena group I intron in knt gene, E. coli kanamycin selection, DiMSum; sequences stand for … in CUCUCU…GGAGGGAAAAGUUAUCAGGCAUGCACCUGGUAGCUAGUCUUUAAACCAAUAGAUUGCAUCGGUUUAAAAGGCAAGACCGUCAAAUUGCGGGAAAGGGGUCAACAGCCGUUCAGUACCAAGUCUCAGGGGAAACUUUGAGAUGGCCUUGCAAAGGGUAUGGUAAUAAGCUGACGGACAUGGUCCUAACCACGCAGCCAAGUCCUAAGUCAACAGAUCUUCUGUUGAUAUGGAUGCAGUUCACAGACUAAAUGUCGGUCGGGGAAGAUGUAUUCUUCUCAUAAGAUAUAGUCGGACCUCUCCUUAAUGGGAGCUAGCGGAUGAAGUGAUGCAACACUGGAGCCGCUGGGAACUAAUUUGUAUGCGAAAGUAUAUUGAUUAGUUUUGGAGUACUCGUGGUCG;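 also: selection with 25 µg/mL kanamycin versus none on LB agar overnight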
- test_conditions: 30 °C
Collected self-splicing fitness (ln) values appear next to each entry.
Give the value as a plain number.

INSERT INTO assay_data (sequence_code, numeric_readout) VALUES
  ('GGCUAGCAAUAUUACGCGGU', -2.92);

What self-splicing fitness (ln) value was documented for this sequence, UACAAGCAAUAUUACGAGGA ? -2.98

What self-splicing fitness (ln) value was documented for this sequence, CCAAAGCAAUAUUACGUCUA ? -3.06

What self-splicing fitness (ln) value was documented for this sequence, ACACAGCAAUAUUACGGGAA ? -2.99

###

Collected self-splicing fitness (ln) values appear next to each entry.
- assay_comment: self-splicing fitness, log relative to wild type (ln ratio); higher = more splicing; Tetrahymena group I intron in knt gene, E. coli kanamycin selection, DiMSum; sequences stand for … in CUCUCU…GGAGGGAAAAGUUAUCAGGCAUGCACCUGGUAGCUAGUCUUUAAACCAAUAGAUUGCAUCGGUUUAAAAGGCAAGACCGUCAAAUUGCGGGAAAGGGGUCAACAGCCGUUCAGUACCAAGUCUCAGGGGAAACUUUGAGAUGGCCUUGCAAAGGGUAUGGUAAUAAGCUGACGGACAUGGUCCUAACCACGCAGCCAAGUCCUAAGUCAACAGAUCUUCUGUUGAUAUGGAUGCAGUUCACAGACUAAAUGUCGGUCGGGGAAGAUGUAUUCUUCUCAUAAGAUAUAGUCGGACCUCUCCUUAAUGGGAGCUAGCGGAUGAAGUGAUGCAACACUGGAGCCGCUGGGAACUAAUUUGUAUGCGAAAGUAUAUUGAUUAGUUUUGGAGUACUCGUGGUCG
- test_conditions: 30 °C

Below: 3 sequences and their reported self-splicing fitness (ln).
INSERT INTO measurements (sequence_code, result) VALUES
  ('CCAAAGCAAUAUUACGGUAG', -1.99),
  ('GCCUAGCAAUAUUACGGCGU', -0.505),
  ('AGUCAGCAAUAUUACGUUUU', -1.49);

Shifting focus to the sequence that follows.
What self-splicing fitness (ln) value was documented for this sequence, UUCAAGCAAUAUUACGUCAC ? -3.57

###

- assay_comment: self-splicing fitness, log relative to wild type (ln ratio); higher = more splicing; Tetrahymena group I intron in knt gene, E. coli kanamycin selection, DiMSum; sequences stand for … in CUCUCU…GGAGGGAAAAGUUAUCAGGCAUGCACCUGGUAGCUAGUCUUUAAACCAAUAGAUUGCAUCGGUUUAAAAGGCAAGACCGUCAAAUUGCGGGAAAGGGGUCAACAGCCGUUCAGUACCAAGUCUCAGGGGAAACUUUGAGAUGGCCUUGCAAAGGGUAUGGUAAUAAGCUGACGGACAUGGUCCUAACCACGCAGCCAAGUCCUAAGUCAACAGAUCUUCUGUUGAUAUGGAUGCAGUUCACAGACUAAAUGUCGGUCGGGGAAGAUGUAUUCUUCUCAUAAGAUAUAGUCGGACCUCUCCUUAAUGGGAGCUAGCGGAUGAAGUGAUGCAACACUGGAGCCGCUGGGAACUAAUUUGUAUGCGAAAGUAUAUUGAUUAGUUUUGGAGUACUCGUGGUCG
- test_conditions: 37 °C
Collected self-splicing fitness (ln) values appear next to each entry.
Give the value as a plain number.

Below: 5 sequences and their reported self-splicing fitness (ln).
INSERT INTO measurements (sequence_code, reported_metric, numeric_readout) VALUES
  ('UAAGAGCAAUAUUACGCUUG', 'self-splicing fitness (ln)', -1.38),
  ('GGCCAGCAAUAUUACGGGGA', 'self-splicing fitness (ln)', -0.469),
  ('UGCUAGCAAUAUUACGUACA', 'self-splicing fitness (ln)', 0.533),
  ('ACGGAGCAAUAUUACGUAGC', 'self-splicing fitness (ln)', -1.64),
  ('CGAAAGCAAUAUUACGAUUG', 'self-splicing fitness (ln)', -0.262);

Shifting focus to the sequence that follows.
What self-splicing fitness (ln) value was documented for this sequence, GAUCAGCAAUAUUACGUGAG ? 0.101
